Catalogue of normalised response values
Tested on: HCC1599
Experiment summary: normalised response (% of control), CellTox Green; higher = less cell death (100 = DMSO, 0 = benzethonium chloride kill control)
Run parameters: incubation time: 72 h

Compound | normalised response / %
Cc1c(CN2CCN(C(=O)[C@H](C)O)CC2)sc2c(N3CCOCC3)nc(-c3cnc(N)nc3)nc12 [GDC-0980] (100 nM) | 106
CC[C@@]1(O)C(=O)OCc2c1cc1n(c2=O)Cc2cc3c(CN(C)C)c(O)ccc3nc2-1 [Topotecan] (100 nM) | 90.7
C[C@]12C=CC(=O)C=C1CC[C@@H]1[C@@H]2[C@@H](O)C[C@@]2(C)[C@H]1CC[C@]2(O)C(=O)CO [Prednisolone] (1000 nM) | 100
Cc1nc(Nc2ncc(C(=O)Nc3c(C)cccc3Cl)s2)cc(N2CCN(CCO)CC2)n1 [Dasatinib] (100 nM) | 95.6
COc1ccc(-c2cc3c(C)nc(N)nc3n([C@H]3CC[C@H](OCCO)CC3)c2=O)cn1 (1000 nM) | 90.4
Cc1ccc(Nc2nccc(N(C)c3ccc4c(C)n(C)nc4c3)n2)cc1S(N)(=O)=O [Pazopanib] (100 nM) | 112
Cc1ccc(Nc2nccc(N(C)c3ccc4c(C)n(C)nc4c3)n2)cc1S(N)(=O)=O [Pazopanib] (10000 nM) | 100

* * *

Tested on: DU-4475
Experiment summary: normalised viability (% of control), CellTiter-Blue; higher = more viable cells (about 100 = DMSO control)
Run parameters: 3 nM; incubation time: 72 h

Smiles entry | normalised viability (%)
Cc1c(CN2CCN(C(=O)[C@H](C)O)CC2)sc2c(N3CCOCC3)nc(-c3cnc(N)nc3)nc12 | 102
O=S(=O)(c1cccc2cnccc12)N1CCCNCC1 | 100
O=C1c2c(O)ccc(O)c2C(=O)c2c(NCCNCCO)ccc(NCCNCCO)c21 | 91.3
O=C(NC[C@H](O)CO)c1ccncc1Nc1ccc(I)cc1F | 79.2

* * *

System: BT-549
Experiment summary: normalised viability (% of control), CellTiter-Blue; higher = more viable cells (about 100 = DMSO control)
Run parameters: 10000 nM; incubation time: 72 h
Listed here are compounds together with their documented normalised viability.
Attribute measured: normalised viability (%)

Compound | Target under test | Numeric readout
O=C(CCBr)N1CCN(C(=O)CCBr)CC1 [Pipobroman] | BT-549 | 84.2
O=S(=O)(c1cccc2cnccc12)N1CCCNCC1 [Fasudil] | BT-549 | 107
O=C(Nc1c[nH]nc1-c1nc2ccc(CN3CCOCC3)cc2[nH]1)NC1CC1 [AT9283] | BT-549 | 4.31
Cc1c(CN2CCN(C(=O)[C@H](C)O)CC2)sc2c(N3CCOCC3)nc(-c3cnc(N)nc3)nc12 [GDC-0980] | BT-549 | 13.6

* * *

Collected normalised response values appear next to each entry.
Tested on: MCF-10A
Experiment summary: normalised response (% of control), CellTiter-Glo; higher = more viable cells (100 = DMSO, 0 = benzethonium chloride kill control)
Run parameters: incubation time: 72 h

Molecule | Unit name | normalised response
C[C@]12O[C@H](C[C@]1(O)CO)n1c3ccccc3c3c4c(c5c6ccccc6n2c5c31)CNC4=O [Lestaurtinib] (1000 nM) | % | 28.5
O=C1c2c(O)ccc(O)c2C(=O)c2c(NCCNCCO)ccc(NCCNCCO)c21 [Mitoxantrone] (1000 nM) | % | 74.2
Cc1c(Cn2c(C)nc3c(C(=O)O)cc(N4CCOCC4)cc32)cccc1C(F)(F)F (10000 nM) | % | 111
CS(=O)(=O)N1CCN(Cc2cc3nc(-c4cccc5[nH]ncc45)nc(N4CCOCC4)c3s2)CC1 [Pictilisib] (10000 nM) | % | 18.4
COc1ccc(-c2cc3c(C)nc(N)nc3n([C@H]3CC[C@H](OCCO)CC3)c2=O)cn1 (10000 nM) | % | 7.97
CC/C(=C(\c1ccc(O)cc1)c1ccc(OCCN(C)C)cc1)c1ccccc1 [4-hydroxytamoxifen] (10000 nM) | % | 81.4
Cc1ccc(Nc2nccc(N(C)c3ccc4c(C)n(C)nc4c3)n2)cc1S(N)(=O)=O [Pazopanib] (10000 nM) | % | 102
c1cc(CN2CCCNCCNCCCNCC2)ccc1CN1CCCNCCNCCCNCC1 [Plerixafor] (10000 nM) | % | 82.6
CC(=O)OC[C@H]1O[C@@H]([S-])[C@H](OC(C)=O)[C@@H](OC(C)=O)[C@@H]1OC(C)=O.CCP(CC)CC.[Au+] [Auranofin] (2500 nM) | % | 37.9
Cc1nc(Nc2ncc(C(=O)Nc3c(C)cccc3Cl)s2)cc(N2CCN(CCO)CC2)n1 [Dasatinib] (1000 nM) | % | 24.3
O=C(NC[C@H](O)CO)c1ccncc1Nc1ccc(I)cc1F [Pimasertib] (10000 nM) | % | 26.6
CCCCC/C=C/C=C1/C(=O)C=C[C@@H]1C/C=C\CCCC(=O)O [15D-PGJ2] (800 nM) | % | 108
CC[C@@]1(O)C(=O)OCc2c1cc1n(c2=O)Cc2cc3c(CN(C)C)c(O)ccc3nc2-1 [Topotecan] (10000 nM) | % | 39
COc1nc(N)nc2c1ncn2[C@@H]1O[C@H](CO)[C@@H](O)[C@@H]1O [Nelarabine] (10000 nM) | % | 86.2
CCC/C=C/C=C/C(=O)O[C@H]1/C(=C/C(=O)OC)C[C@H]2C[C@H]([C@@H](C)O)OC(=O)C[C@H](O)C[C@@H]3C[C@H](OC(C)=O)C(C)(C)[C@](O)(C[C@@H]4C/C(=C/C(=O)OC)C[C@H](/C=C/C(C)(C)[C@]1(O)O2)O4)O3 [Bryostatin 1] (100 nM) | % | 95.7
